Assay read-out IC50 on Dihydroorotate dehydrogenase (quinone), mitochondrial (Homo sapiens, UniProt Q02127); records merged from the literature.
Note to self: IC50 under 300 nM means T, ties and anything higher get F.

• Cc1cc(C(=O)O)c2nc(-c3c(F)c(F)c(-c4ccc(F)c(F)c4)c(F)c3F)[nH]c2c1 = F
• Cc1cc(C(=O)O)c2[nH]c(-c3ccc(-c4ccc(OCCO)cc4)cc3)nc2c1 = F
• Cc1ccc(Nc2cnc(-c3cccc(C(=O)N(C)C)c3)c(C)c2)c(C(=O)O)c1 = T
• CCn1c(CO)nn(-c2cc3c(cc2F)C(=O)N(c2c(C)ccnc2Cl)CN3C(C)C)c1=O = T
• Cc1ccc(Nc2cnc(-c3cccc(C(N)=O)c3)c(C)c2)c(C(=O)O)c1 = T
• CCn1c(CO)nn(-c2ccc3c(=O)n(-c4cccc(F)c4)cc(C(C)(C)O)c3c2)c1=O = F
• CCC(CC)Oc1cc(C(C)C)c2cc(-n3nc(CO)n(CC)c3=O)c(F)cc2n1 = F
• CCn1c(CO)nn(-c2cc3c(C(C)C)cn(C4CCCCC4)c(=O)c3cc2F)c1=O = T
• Cc1cc(C(=O)O)c2nc(-c3ccc(-c4ccc(OCc5ccccc5)cc4)cc3)[nH]c2c1 = F
• CN1CCN(Cc2cccc(-c3c(F)c(F)c(-c4cc(C(=O)O)c5c(c4)nnn5C)c(F)c3F)c2)CC1 = F
• Cn1nnc2cc(-c3c(F)c(F)c(-c4ccccc4)c(F)c3F)cc(C(=O)O)c21 = T
• CCn1c(CO)nn(-c2ccc3c(=O)n(-c4c(F)cccc4Cl)nc(C(C)C)c3c2)c1=O = T
• C[C@H](Oc1cc(-n2nc3n(c2=O)CCC2(CC2)C3)c(F)cc1C(=O)Nc1c(Cl)cc(F)cc1Cl)C(F)(F)F = T
• CCn1c(CO)nn(-c2cc(O[C@@H](C)C(F)(F)F)c(/C(F)=C/c3cccc(NC(=O)C4CC4)c3)cc2F)c1=O = T
